Numbers sourced from paper PMC4537050.

target-of-assay: FGF1 (UniProt P05230)
assay-text: SPR; BIAcore X-100; FGF8b (20 μg/ml in 10 mM sodium acetate, pH 6.0) or other FGFs (10 mM sodium acetate at optimal pH) immobilised on a CM5 sensor chip by EDC/NHS; peptide injected (ARPCA 8 μM to 2000 μM), 4 min at 30 μl/min, 10 min dissociation, in HBS; equilibrium values fitted with the Langmuir equation for monovalent binding
measured-property: Kd
In your response, the unit should come after the numeric value.

Consider Ac-ARPCA-NH2 [Ac-ARPCA-NH2, acetylated pentapeptide corresponding to PTX3(100-104)] . Its measured Kd is 227 µM
